Kindly state melting point for each of the entries shown.

Challenge: // lookup melting point for "Fc1ccc(C2=C(c3ccccc3)N(C(F)(F)F)CO2)cc1F"
Response given: 146 to 148 °C

Challenge: Param item: "Cc1[nH]c(C(C)(C)C)nc1C=O"
Response given: 196 to 198 °C

Challenge: Thanks! And "Cc1cccc(C(=O)Nc2c[nH]nc2C(=O)NCCC#N)n1" ?
Response given: 225 to 227 °C

Challenge: Same question, "O=c1[nH]c2cc(Cl)ccc2c(O)c1-c1ccccc1Cl" this time
Response given: > 300 °C

###

ENDPOINT: melting point

Challenge: Return reported melting point; argument: "COC(=O)c1cc2c(Cl)cc(F)c(-n3c(=O)cc(C(F)(F)F)n(C)c3=O)c2o1"
Response given: 194 to 196 °C

Challenge: Then "O=C(O)CCCc1cc2nc(Cl)ccc2n1S(=O)(=O)c1cccc(-c2cncs2)c1" ?
Response given: 157 to 160 °C

Challenge: Another molecule to look at: "Cc1cccc2cc3c(=O)n(Cc4ccccn4)cc(C(=O)NCCN(C)C)c3nc12"
Response given: 183 to 184 °C

Challenge: Then what about the molecule "Cc1cn(-c2ccc(N3C[C@H](CO)OC3=O)cc2F)nn1" ?
Response given: 190 to 192 °C

Challenge: Same question for "C/C(=C\c1ccc(OC(C)C)cc1Oc1ncc(C(F)(F)F)cc1Cl)C(=O)NS(=O)(=O)NCCc1ccccc1" please.
Response given: 147 to 148 °C

Challenge: Would you kindly repeat that for "NC(=O)c1ncn2c(-c3ccc(Cl)c(Cl)c3)ccnc12" ?
Response given: 302 to 304 °C

Challenge: Queued: "O=C1c2ccccc2C(=O)N1Cc1noc(-c2ncn3c2[C@@H]2CCN2C(=O)c2c-3cccc2C(F)(F)F)n1"
Response given: 243 to 245 °C

Challenge: Then "COc1cc(Cl)c2nc(-c3ccc(OC)c(F)c3)cc(Br)c2c1" ?
Response given: 156 to 157 °C

Challenge: Note, next up: "O=C1CC(C(F)(F)F)CC(=O)N1c1cc(OCC=C(Cl)Cl)c(Cl)cc1F"
Response given: 106 to 108 °C

###

ENDPOINT: melting point

Challenge: Requested field: melting point. Item: "Cc1ccc2cccc(OCc3c(Cl)ccc(C(=O)NCCN4C(=O)c5ccccc5C4=O)c3Cl)c2n1"
Response given: 210 to 212 °C

Challenge: What about O=C1c2cc3nnn(C4CC4)c(=O)c3cc2OC2CCCN12 (stereo unspecified) ?
Response given: 215 to 217 °C

Challenge: Try this compound too: "COC(=O)c1ccccc1C(=O)c1ccc(O)cc1"
Response given: 147 to 149 °C

Challenge: Try this compound next: "N#Cc1c(O)cccc1[N+](=O)[O-]"
Response given: 200 °C

Challenge: Same question, "CNC(=O)C(=O)c1ccccc1Oc1ccccc1" this time
Response given: 94 to 95 °C

Challenge: // same read-out, input: "COC[C@H](Cc1ccccc1)NC(=O)[C@@H](CC(=O)O)n1ccc(-c2ccc(-c3ccccc3)cc2)c1"
Response given: 247 °C

Challenge: # repeat for Nc1c(Cl)cc(C(O)CNCCCCCCOCCCCCCc2cnccn2)cc1Cl (stereo unspecified)
Response given: 60 to 63 °C

Challenge: For "Cc1cscc1-c1cccc2c1nnn2-c1ccnc(NC2CCN(S(C)(=O)=O)CC2)n1" then?
Response given: 244 to 245 °C

Challenge: Could you do the same for "CCC(=O)N[C@@H](C)C(=O)N1CCC[C@H]1C(=O)NC1CCCC1" , please?
Response given: 172 to 173 °C

Challenge: // query: "O=C1c2ccccc2C(=O)N1C1CN(C(c2ccccc2)c2ccccc2)C1"
Response given: 118 to 120 °C

Challenge: What about this compound? "Cc1oc(-c2ccccc2)nc1C(=O)CBr"
Response given: 88 to 89 °C

###

Can you tell me melting point for the items I'm about to list?

Challenge: // melting point lookup, key: "CC(C)NS(=O)(=O)c1cc(Br)cc(Br)c1"
Response given: 105 to 107 °C

Challenge: Same thing, different compound: "Cn1c(SCC(=O)C23CC4CC(CC(C4)C2)C3)nc2ccccc21"
Response given: 146 to 148 °C

Challenge: Quick one: "CCCc1nc(NC)sc1-c1ccncc1"
Response given: 150 to 151 °C

Challenge: Then what about the compound "O=C1CCC(c2ccc(N=C3NCCN3)cc2)=NN1" ?
Response given: 235 to 236 °C

###

Give measured melting point for each item. Keep answers brief.
Residues, ends and D or L forms follow the SMILES beside them. *: point of attachment. Boc = CC(C)(C)OC(=O)*

Challenge: What value of melting point has been reported for the following molecule? "COCC(=O)N1CCN(CCc2ccc(-c3cccc(N)n3)cc2)CC1"
Response given: 148 to 150 °C

Challenge: Query "COc1nc(C(=O)N(C)Cc2cc(C(F)(F)F)cc(C(F)(F)F)c2)c(-c2ccccc2)c2ccccc12" next
Response given: 129 to 130 °C

Challenge: Query "CCCCOc1cc(/C=C(\OCC)C(=O)O)ccc1CCCc1ccc(OC)cc1" next
Response given: 65 °C

Challenge: Next record, please: "O=C(O)c1cnc(Nc2ccccc2O)[nH]c1=O"
Response given: 254 to 256 °C

Challenge: Another molecule to check: "Cc1cc(-n2ccnc2)c2cccc(OCc3c(Cl)ccc(S(=O)(=O)N4CCC[C@H]4C(=O)NCC4CCN(C(=O)c5ccccc5)CC4)c3Cl)c2n1"
Response given: 102 °C

Challenge: # iterate: "Cc1nc(N)c2nc(C)n(CCOCC#Cc3ccccc3)c2c1C"
Response given: 187 to 188 °C

Challenge: And for "c1ccc(Cc2ncc(-c3ccc4cc(OCc5nnn[nH]5)ccc4c3)o2)cc1" ?
Response given: 227 to 228 °C

Challenge: Same question, COC(=O)CNC(=O)CNC(=O)CNC(=O)OC(C)(C)C (Boc-Gly-Gly-Gly-OMe) this time
Response given: 122 to 128 °C

Challenge: What would you report for "O=C(CNC1CCCCC1)Nc1ccc(C(=O)N2CCCCc3ccccc32)cc1" ?
Response given: 139 to 142 °C

Challenge: What about "CN(C)c1cc(CO)cc(N(C)C)c1N1CCCCC1" ?
Response given: 90 to 92 °C

Challenge: Also need Cn1cnc2c1c(=O)n(CC(O)CN1CCN(C(c3ccc(F)cc3)c3ccc(F)cc3)CC1)c(=O)n2C (stereo unspecified) , thanks.
Response given: 138 to 140 °C

Challenge: // same read-out, input: "Cn1c([N+](=O)[O-])cnc1-c1nnc2ccc(N=CN3CCC(O)CC3)nn12"
Response given: 188 to 190 °C

Challenge: What about "COc1ccc(OC)c(C=CC(=O)Nc2cnc3c(C)cc(C)cc3c2-c2ccccc2Cl)c1" ?
Response given: 209 to 210 °C

Challenge: "Cc1sc(NC(=O)CCc2cnoc2-c2ccccc2)nc1-c1ccccc1" ?
Response given: 150 to 151 °C

Challenge: Same question, "Cc1ccc(-c2c(O)nn(CCO[Si](C)(C)C(C)(C)C)c2N)cc1" this time
Response given: 194 to 195 °C

Challenge: Field entry: "COc1ccc(Br)c(COc2ccc3ccc(OC)cc3c2)c1"
Response given: 156 to 157 °C

###

ENDPOINT: melting point

Challenge: Name the recorded melting point for "C[C@@H]1OCc2cc3c(nc21)N1[C@H](C3)CN(C(=O)OC(C)(C)C)C[C@H]1C" .
Response given: 143 to 144 °C

Challenge: // same read-out, input: "CCN(CC)CCCOc1ccc(C[C@H](NC(=O)[C@@H]2CCCN2S(=O)(=O)c2ccc(C)cc2)C(=O)O)cc1"
Response given: 76 to 82 °C

Challenge: Thanks! And "CN(CCOc1cccc2cc(S(=O)(=O)c3ccccc3)n(C(=O)OC(C)(C)C)c12)C(=O)OC(C)(C)C" ?
Response given: 118 to 120 °C

Challenge: Cool, now "Cc1cc(C)c(N2CCCCC2=O)c(Cl)c1"
Response given: 108 to 109 °C

Challenge: Now consider CCOC(=O)N(C)CCCC1c2cccc3c2N(CC3)c2ccccc2N1C(C)=O (stereo unspecified) and answer again.
Response given: 125 to 128 °C

Challenge: Please give the result for "CC(C)=C(C[C@H](N)C(=O)O)C(=O)O" too.
Response given: 198 to 199 °C

Challenge: Another: "Cn1ccc2cc(C(=O)NN)ccc21"
Response given: 140 to 141 °C

Challenge: Another compound: "CN1C(=O)c2cnc(-c3ccccc3)nc2N(C(=O)CCl)c2ccccc21"
Response given: 189 to 190 °C

Challenge: Entry "Cc1cn(NCCCc2ccncc2F)c2ccc(OCc3ccccc3)cc12" please
Response given: 94 to 96 °C

Challenge: Consider next the compound "O=C(O)c1ccc(OCCCc2cc(-c3ccc(C(F)(F)F)cc3)no2)cc1" in the same way.
Response given: 221 to 222 °C

Challenge: Try "CCCCc1ccc(C(O)=S)nc1" next.
Response given: 99 °C

Challenge: Cool, now "Nc1sc2c(c1C(=O)c1ccc(I)c3ccccc13)CCCC2"
Response given: 180 to 182 °C

Challenge: Now this one: "O=C(Nc1ccc([N+](=O)[O-])cc1O)OCc1ccccc1"
Response given: 200 °C

Challenge: Could you do the same for "c1ccc2cc(Cc3ccncc3)ccc2c1" , please?
Response given: 66 to 67 °C

Challenge: Next up: "CC1(C)CCC(C)(C)c2cc(-c3cc(-c4ccc(C(=O)O)cc4)ccc3OCCCCNC3CC3)ccc21"
Response given: 160 °C

Challenge: Now this one: COc1cccc2c1C13CCN(C(=O)C4CC4)C(C2)C1CCC(=O)C3 (stereo unspecified)
Response given: 144 to 147 °C

Challenge: Entry "CC(=O)N1CCN(c2ccc(Nc3nccc(-c4sc(N)nc4C)n3)cc2)CC1" please
Response given: 267 to 269 °C

Challenge: Now try "CCCCCCCCCCCCOC(=O)c1cc([N+](=O)[O-])c(C(=O)O)cc1C(=O)O" .
Response given: 148 °C

Challenge: How about this compound: "O=c1[nH]c(=O)n(CCCCCN2CCC(OC(c3ccccc3)c3ccccc3)CC2)c2ccccc12"
Response given: 173 to 174 °C

Challenge: Would you mind doing "Cn1cc(-c2cc3cccnc3[nH]2)c2cc(OC3(C(N)=O)CCC3)ccc21" as well?
Response given: 267 to 268 °C

Challenge: Now give it for "COC(=O)c1ccc(C#N)c(OC)n1" too.
Response given: 125 °C

Challenge: What do we get for "NS(=O)(=O)c1ccc(Nc2nc(OCC3CCCCC3)c3[nH]cnc3n2)cc1" ?
Response given: 152 to 154 °C

Challenge: Same lookup for "CC(C)(Oc1ccc(CC(=O)Nc2ccc(F)cc2)cc1)C(=O)O" , please.
Response given: 198 °C

Challenge: Likewise for "Clc1nc2ccccc2c2c1ncn2Cc1ccccn1" ?
Response given: 217 to 220 °C

Challenge: // next record "CSC(SC)=C1C(=O)OC(C)(C)OC1=O"
Response given: 114 to 118 °C

Challenge: Same lookup for "O=CNC1=NN(c2cccc(Cl)c2)CC1" , please.
Response given: 143 to 145 °C

The reported numbers originate from a melting point compilation (Tetko et al.; mined from patent text by program, amines drawn as free bases though some values may be those of a salt).
